Molecular target: AGE-BSA (Bos taurus)
Construct: Bovine serum albumin (fraction V) (BSA); from tissue; host or cells: bovine serum (fraction V albumin)
Sequence (P02769 25-607): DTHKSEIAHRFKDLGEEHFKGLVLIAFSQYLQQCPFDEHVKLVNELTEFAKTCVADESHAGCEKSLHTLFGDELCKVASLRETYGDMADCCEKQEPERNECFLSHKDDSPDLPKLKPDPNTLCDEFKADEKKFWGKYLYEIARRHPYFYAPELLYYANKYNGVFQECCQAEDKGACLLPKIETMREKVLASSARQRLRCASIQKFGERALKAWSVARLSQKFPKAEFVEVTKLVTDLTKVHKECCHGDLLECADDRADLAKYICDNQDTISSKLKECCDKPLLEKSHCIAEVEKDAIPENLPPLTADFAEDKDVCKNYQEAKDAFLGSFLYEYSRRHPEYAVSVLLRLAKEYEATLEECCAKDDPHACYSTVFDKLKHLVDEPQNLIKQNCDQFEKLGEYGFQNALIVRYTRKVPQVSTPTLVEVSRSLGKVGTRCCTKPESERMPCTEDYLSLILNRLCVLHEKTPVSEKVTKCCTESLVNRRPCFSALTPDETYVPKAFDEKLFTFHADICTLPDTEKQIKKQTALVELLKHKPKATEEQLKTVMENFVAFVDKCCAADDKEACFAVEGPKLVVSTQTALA
Assay: In-vitro screening for AGE-breaking activity (ELISA on 16 weeks AGE-BSA)
Format: biochemical, bovine
Settings: Concentration 10 mM; 10µg/ml 16 weeks AGE-BSA, 37°C, 24 hours
Below: a set of entries, each annotated with reported % breakage of AGE-BSA crosslinks at 10000 µM.
propertyLabel: % breakage of AGE-BSA crosslinks at 10000 µM (%)

[[record]]
compound = "O=C(NNC(=O)c1ccc[n+](CC(=O)c2ccc(Cl)s2)c1)c1ccc[n+](CC(=O)c2ccc(Cl)s2)c1"
resultvalue = 78.4

[[record]]
compound = "CC(C)S(=O)(=O)NNC(=O)c1ccc[n+](CC(=O)c2cccs2)c1"
resultvalue = 31.4

[[record]]
compound = "O=C(NNC(=O)c1cccnc1Cl)c1ccc[n+](CC(=O)c2cccs2)c1"
resultvalue = 12.5

[[record]]
compound = "O=C(C[n+]1cccc(C(=O)NCCOC(=O)c2ccccc2)c1)Nc1ccccc1"
resultvalue = 37

[[record]]
compound = "O=C(NNC(=O)c1ccc[n+](CC(=O)c2ccco2)c1)c1ccc[n+](CC(=O)c2ccco2)c1"
resultvalue = 14

[[record]]
compound = "COCCOC(=O)c1ccc[n+](CC(=O)c2ccc(Cl)cc2Cl)c1"
resultvalue = 13

[[record]]
compound = "O=C(NNS(=O)(=O)C(F)(F)F)c1ccc[n+](CC(=O)c2cccs2)c1"
resultvalue = 92.6

[[record]]
compound = "CCOC(=O)C1CCCN1C(=O)C[n+]1cccc(C(=O)NNC(=O)c2ccc[n+](CC(=O)N3CCCC3C(=O)OCC)c2)c1 (centres unmarked)"
resultvalue = 20.3

